Sourced from PubChem BioAssay (NCI)

test system: BT-549 breast; assay: NCI tumour cell line growth inhibition, 48 h
Test readout: TGI

Field: example entries. Status: answers known.
INSERT INTO results (compound, test_readout, observed_result) VALUES
  ('CCc1ccc(C2=NN(c3ccc(S(C)(=O)=O)cc3)C(=O)CC2)cc1', 'TGI', '16.3 µM'),
  ('CCCCCC(/C=C/[C@@H]1[C@@H](C(O)CCCCCC(=O)OC)C(=O)C[C@H]1O[Si](C)(C)C(C)(C)C)OCOCCOC (stereo not given in full)', 'TGI', '24.8 µM'),
  ('C/C(=N\Nc1nc2ccccc2n1C)c1ccc2ccccc2n1', 'TGI', '> 59.6 µM');

Case COC(=O)C1=Nc2ccc(F)cc2/C1=C/c1sc(=S)[nH]c1O , BT-549 breast, TGI recorded as 3.31 µM

Case O=S(=O)(O)c1ccc2c(N=Nc3c(O)ccc4ccccc34)cccc2c1 , BT-549 breast, TGI recorded as > 100 µM

----------
tested on: UACC-257 melanoma; assay: NCI tumour cell line growth inhibition, 48 h
The following molecules are listed with their measured TGI values.

INSERT INTO results (molecule, observed_result) VALUES
  ('CCCCOc1ccc(S(=O)(=O)/N=C(\N)Nc2ccc(Cl)cc2)cc1', '27.1 µM'),
  ('C=CC[PH+](c1ccccc1)c1ccccc1.C=CC[PH+](c1ccccc1)c1ccccc1.[Pt+2].[S-]c1ncccn1.[S-]c1ncccn1', '37.2 µM');

Case Cc1c(C)c2ccc(OC(C)C(=O)O)cc2oc1=O (centres undefined) , UACC-257 melanoma, TGI recorded as > 100 µM

Case O=C(/C=C/c1cccs1)c1ccc([N+](=O)[O-])cc1 , UACC-257 melanoma, TGI recorded as > 100 µM

Case COC(=O)C1(Cc2ccccc2)Cc2c(C)ccc(C)c2C1=O (centres undefined) , UACC-257 melanoma, TGI recorded as 64.9 µM

Case CC(=O)O[C@H]1C[C@H]2[C@@H]([C@H](OC(C)=O)C[C@@H]3CC4(CC[C@@]32C)OOC2(CCCCC2)OO4)[C@@H]2CC[C@H]([C@H](C)CCC(=O)O)[C@@]12C , UACC-257 melanoma, TGI recorded as 25 µM

Case COC1(c2ccccc2)NC(=S)NN=C1c1ccccc1 (centres undefined) , UACC-257 melanoma, TGI recorded as > 100 µM

Case O=C(Nc1ccc(Cl)c(Cl)c1)C1C(=O)N(c2ccc(Cl)c(Cl)c2)C(=O)/C1=N\O (centres undefined) , UACC-257 melanoma, TGI recorded as > 100 µM

Case CCOC(=O)C1=CSC2=NC3=C(CCC/C3=C\c3cc(OC)c(OC)c(OC)c3)C(c3cc(OC)c(OC)c(OC)c3)N12 (centres undefined) , UACC-257 melanoma, TGI recorded as > 100 µM

Case CCOC(=O)[C@H]1Nc2c(cccc2[N+](=O)[O-])C2c3ccccc3CC21 (some centres undefined) , UACC-257 melanoma, TGI recorded as 98.4 µM

Case C=C(C)[C@@H]1CC[C@]2(C(=O)n3ccnc3)CC[C@]3(C)[C@H](CC[C@@H]4[C@@]5(C)CCCNC(C)(C)[C@@H]5CC[C@]43C)[C@@H]12 , UACC-257 melanoma, TGI recorded as 4.09 µM

Case CCOc1ccc(/C=C2/C(=O)N=C(N)N=C2N)cc1OCC , UACC-257 melanoma, TGI recorded as > 100 µM

Case O=S(=O)(c1ccc2ccccc2c1)N1CCN(S(=O)(=O)c2ccc3ccccc3c2)CC1 , UACC-257 melanoma, TGI recorded as > 100 µM

Case CC1CCC2c3c([nH]c4ccccc34)C3C(=O)N(c4ccccc4)C(=O)C3C2C1 (centres undefined) , UACC-257 melanoma, TGI recorded as > 250 µM

Case Cn1c(SCc2c[nH]c3ccccc23)nnc1-c1ccc(Cl)cc1Cl , UACC-257 melanoma, TGI recorded as 56.1 µM

Case O=c1c2ccccc2n2cnc3ccc(NCCNCCO)c1c32 , UACC-257 melanoma, TGI recorded as 13.2 µM

Case COc1ncc2cc1NS(=O)(=O)c1cccc(c1)C(=O)NCC1=CC=C(S1)c1ncnc3c1SC2=C3C , UACC-257 melanoma, TGI recorded as 2.99 µM

Case COc1cccc(/C=N/[N-]C(N)=O)c1[O-].[OH3+].[Pd+2] , UACC-257 melanoma, TGI recorded as > 100 µM

Case CON(C)C(=O)C(C)NC(=O)OC(C)(C)C (centres undefined) , UACC-257 melanoma, TGI recorded as > 100 µM
